Test system: cerebellar granule cells (CGC)
TEST_PROTOCOL: Antiapoptotic capacity (rescue) in cerebellar granule cells induced into apoptosis by cytosine arabinoside (CGC assay)
Assay type: cell-based, Wistar rat
EXPERIMENTAL_SETUP: compound 10^−12 M; AraC 300 uM-induced apoptosis; 24 hours
Counter-ions that a name gives are not always drawn.
MEASUREMENT_LABEL: Rescue by Amino Acids and Esters in the CGC Assay, 10^−12 M

[[record]]
compound = "CCCCC[C@H](C)NCC(=O)O.Cl [S-2-Heptyl (Glycines)]"
endpoint_result = "R"

[[record]]
compound = "CCCCC[C@@H](C)N(C)CCC(=O)OC.Cl [R-2-Heptyl-N-methyl (B-Alaninates)]"
endpoint_result = "R"

[[record]]
compound = "CCCCCCNCCC(=O)OC [1-Hexyl (B-Alaninates), hydrochloride]"
endpoint_result = "R"

[[record]]
compound = "CCCCCC(C)NCCC(=O)O (stereo in doubt) [R-2-Heptyl (B-Alanines), hydrochloride]"
endpoint_result = "R"

[[record]]
compound = "CCCCCCNCCC(=O)O [1-Hexyl (B-Alanines), 3(1-Hexylamino)propionic acid]"
endpoint_result = "R"

[[record]]
compound = "CC(C)NCCC(=O)O.Cl [2-Propyl (B-Alanines)]"
endpoint_result = "R"

[[record]]
compound = "CCCCC[C@@H](C)N(C)CCC(=O)O.Cl [R-2-Heptyl-N-methyl (B-Alanines)]"
endpoint_result = "R"


====

Tested on: cerebellar granule cells (CGC)
TEST_PROTOCOL: Antiapoptotic capacity (rescue) in cerebellar granule cells induced into apoptosis by cytosine arabinoside (CGC assay)
Format: cell-based, Wistar rat
EXPERIMENTAL_SETUP: overall over 10^−6, 10^−9, 10^−12 M
From the text: In Vitro Protocol for Assessing the Antiapoptotic Capacity of Various Compounds in Cerebellar Granule Cells Cultures of cerebellar granule cells (CGC) can be induced into apoptosis by the addition of a high concentration of cytosine arabinoside (AraC). It has been shown that this is a p53 dependent apoptosis. We have measured the antiapoptotic effect of some amino acids, amino esters, amino phosphonic acids, amino nitriles and amino tetrazoles using this system. […]
Structures can show the parent of a compound that is named as a salt.
MEASUREMENT_LABEL: Rescue by Amino Acids and Esters in the CGC Assay, Rescue (overall yes/no)

[[record]]
compound = "CCCCCCNCC(=O)O.Cl [1-Hexyl (Glycines)]"
endpoint_result = "yes"

[[record]]
compound = "CCCCCC(C)NCC(=O)O (stereo in doubt) [R-2-Heptyl (Glycines), hydrochloride]"
endpoint_result = "no"

[[record]]
compound = "CCCCC[C@@H](C)N(C)CCC(=O)O.Cl [R-2-Heptyl-N-methyl (B-Alanines)]"
endpoint_result = "yes"

[[record]]
compound = "CCCCCCNCCC(=O)OC [1-Hexyl (B-Alaninates), hydrochloride]"
endpoint_result = "yes"

